Origin of values: paper PMC4965013

Test system: P. falciparum 3D7 trophozoites
test: Metabolomic fingerprint profiling LC-MS
Format: cell-based, Plasmodium falciparum
applied-conditions: metabolite hypoxanthine, S2 Table Metabolomics
measurement-name: hypoxanthine

compound | hypoxanthine
C[n+]1c2ccccc2nc2ccc(NCCO)cc21 | 0.1496
O=C1C(O)=C([C@H]2CC[C@H](c3ccc(Cl)cc3)CC2)C(=O)c2ccccc21 [Atovaquone, reference compound] | 0.2162

Notebook entry, P. falciparum 3D7 trophozoites assay: hypoxanthine of COc1ccc(C(C)=O)cc1N1C(=O)C2C(C1=O)C1(c3ccccc3)C(=O)C2(c2ccccc2)C(c2ccc(C)cc2)=C1c1ccc(C)cc1 (centres unmarked) = ? 0.7986

Notebook entry, P. falciparum 3D7 trophozoites assay: hypoxanthine of CCOc1cc2c(cc1OCC)C(c1cc(OC)c(O)cc1Cl)NCC2 (centres unmarked) = ? 0.3973

Notebook entry, P. falciparum 3D7 trophozoites assay: hypoxanthine of COc1ccccc1CNC(=O)CCn1c(=O)[nH]c2ccccc2c1=O = ? -0.2904

====

Items are presented alongside their recorded UMP.
Tested on: P. falciparum 3D7 trophozoites
test: Metabolomic fingerprint profiling LC-MS
Format: cell-based, Plasmodium falciparum
applied-conditions: metabolite UMP; S2 Table Metabolomics, change in metabolite level after compound treatment
// keep it numeric: no unit symbol after the value

Example entries and their recorded answers appear below.
compound | assayed-system | observed-measurement
COc1ccc(NC(=O)C2c3ccccc3C(=O)N(CC(C)C)C2c2cccs2)cc1Cl (stereo not drawn) [MMV000642] | P. falciparum 3D7 trophozoites | -0.4497
CN(C)c1ccc(C(O)(c2ccc(N(C)C)cc2)c2ccc(N(C)C)cc2)cc1 [MMV665941] | P. falciparum 3D7 trophozoites | -1.259
CCCN(CCC)CC(O)COc1ccccc1C(=O)Nc1ccccc1 (stereo not drawn) [MMV006455] | P. falciparum 3D7 trophozoites | -0.5223
CN(C)c1ccc(C=Cc2nc(=O)c3ccccc3o2)cc1 [MMV006309] | P. falciparum 3D7 trophozoites | -0.8586
COc1ccc(C(C)=O)cc1N1C(=O)C2C(C1=O)C1(c3ccccc3)C(=O)C2(c2ccccc2)C(c2ccc(C)cc2)=C1c1ccc(C)cc1 (stereo not drawn) [MMV007695] | P. falciparum 3D7 trophozoites | -1.868

Now consider the entry below.
Notebook entry, P. falciparum 3D7 trophozoites assay: UMP of CCCc1cc(O)c2c3c(c(=O)oc2c1)CN(C)CC3 [MMV665841] = ? 0.01879

====

Tested on: P. falciparum 3D7 trophozoites
test: Metabolomic fingerprint profiling LC-MS
Assay type: cell-based, Plasmodium falciparum
applied-conditions: metabolite a-ketoglutarate, S2 Table Metabolomics
measurement-name: a-ketoglutarate
// keep it numeric: no unit symbol after the value

Example entries and their recorded answers appear below.
compound | observed-measurement
COc1cc(OC)c(N(C)C(=O)c2cc3c(s2)-c2ccccc2S(=O)(=O)C3)cc1Cl | -0.411
CCCc1cc(O)c2c3c(c(=O)oc2c1)CN(C)CC3 | -1.017
COc1cccc(NC(=O)[C@H](C(C)C)n2c(=O)[nH]c3ccccc3c2=O)c1 | -0.5207
CN1CCN(c2ccc(Nc3c4ccccc4nc4ccccc34)cc2)CC1 | -0.4073
COc1ccc(NC(=O)C2c3ccccc3C(=O)N(CC(C)C)C2c2cccs2)cc1 (stereo not drawn) | 0.4405

Notebook entry, P. falciparum 3D7 trophozoites assay: a-ketoglutarate of CCN1CCN(Cc2ccc(NC(=O)c3cc4ccc5cccnc5c4[nH]3)cc2)CC1 = ? 0.2925

Notebook entry, P. falciparum 3D7 trophozoites assay: a-ketoglutarate of COc1ccc(-c2cc3c(SCC(=O)Nc4cc(C(F)(F)F)ccc4Cl)nccn3n2)cc1 = ? 0.1314

Notebook entry, P. falciparum 3D7 trophozoites assay: a-ketoglutarate of OC(CNC1CCCCC1)Cn1c2ccccc2c2ccccc21 (stereo not drawn) = ? -0.1494

Notebook entry, P. falciparum 3D7 trophozoites assay: a-ketoglutarate of O=C(O)C1Cc2c([nH]c3ccccc23)C(c2ccc(Cl)cc2Cl)N1 (stereo not drawn) = ? -0.4582

====

Tested on: P. falciparum 3D7 trophozoites
test: Metabolomic fingerprint profiling LC-MS
Type: cell-based, Plasmodium falciparum
applied-conditions: metabolite phosphoenolpyruvate, S2 Table Metabolomics
Items are presented alongside their recorded phosphoenolpyruvate.

Example entries and their recorded answers appear below.
molecule | phosphoenolpyruvate
CN(C)CCCNc1c2ccccc2nc2ccccc12 [MMV000448] | -0.129
COc1ccc(-n2ccnc2SCC(=O)Nc2cc(C)ccc2C)c(OC)c1 [MMV019258] | 0.911
COc1ccc(C2=C(c3ccc(OC)cc3)C3(c4ccccc4)C(=O)C2(c2ccccc2)C2C(=O)N(c4ccc(C)cc4)C(=O)C23)cc1 (centres unmarked) [MMV666101] | 0.02347
Cc1ccc(N2C(=O)C3C(C2=O)C2(c4ccccc4)C(=O)C3(c3ccccc3)C(c3ccccc3)=C2c2ccccc2)cc1 (centres unmarked) [MMV666062] | -0.3807
COc1ccc(-c2c(C)nn3c(N)c(C#N)cnc23)cc1OC [MMV396797] | -0.1659

Name the recorded phosphoenolpyruvate for c1ccc2cc3c(Nc4ccc(N5CCOCC5)cc4)ccnc3cc2c1 [MMV006861] . -0.1566

Name the recorded phosphoenolpyruvate for CCCc1cc(O)c2c3c(c(=O)oc2c1)CN(C)CC3 [MMV665841] . 0.2681

Name the recorded phosphoenolpyruvate for COc1ccc(-c2cc3c(SCC(=O)Nc4cc(C(F)(F)F)ccc4Cl)nccn3n2)cc1 [MMV396679] . -0.02867

====

Items are presented alongside their recorded indole.
System: P. falciparum 3D7 trophozoites
test: Metabolomic fingerprint profiling LC-MS
Assay type: cell-based, Plasmodium falciparum
applied-conditions: metabolite indole, S2 Table Metabolomics
// keep it numeric: no unit symbol after the value

compound | indole
COc1ccc(NC(=O)C2c3ccccc3C(=O)N(CC(C)C)C2c2cccs2)cc1Cl (centres unmarked) [MMV000642] | -0.1989

Name the recorded indole for O=C1C(O)=C([C@H]2CC[C@H](c3ccc(Cl)cc3)CC2)C(=O)c2ccccc21 [Atovaquone, reference compound] . 0.1728

Name the recorded indole for COc1cccc(NC(=O)[C@H](C(C)C)n2c(=O)[nH]c3ccccc3c2=O)c1 [MMV665878] . -0.3292

Name the recorded indole for CCOC(=O)c1c(NC(=O)c2ccccc2)sc2c(O)c(CN(CC)CC)ccc12 [MMV665831] . -0.03305

Name the recorded indole for COc1ccc2c(=O)cc(C(Cl)(Cl)Cl)oc2c1 [MMV665820] . 0.006213

====

System: P. falciparum 3D7 trophozoites
test: Metabolomic fingerprint profiling LC-MS
Assay type: cell-based, Plasmodium falciparum
applied-conditions: metabolite dGMP/AMP; S2 Table Metabolomics, change in metabolite level after compound treatment
The label is fulfilled for dGMP/AMP below 0.09 and not fulfilled for dGMP/AMP equal to or exceeding 0.09.

Answer whether the compound O=C(NCC(c1ccsc1)N1CCCCCC1)c1ccc(C(F)(F)F)cc1 (stereo not drawn) [MMV396672] has dGMP/AMP strictly less than 0.09 fulfilled

Answer whether the compound Cc1ccc(N2C(=O)C3C(C2=O)C2(c4ccccc4)C(=O)C3(c3ccccc3)C(c3ccccc3)=C2c2ccccc2)cc1 (stereo not drawn) [MMV666062] has dGMP/AMP strictly less than 0.09 fulfilled

Answer whether the compound Cc1ccc(-c2cc3c(SCC(=O)Nc4cc(C(F)(F)F)ccc4Cl)nccn3n2)cc1 [MMV396680] has dGMP/AMP strictly less than 0.09 fulfilled

Answer whether the compound CSc1ccccc1C(=O)Nc1nc(-c2ccccn2)cs1 [MMV001246] has dGMP/AMP strictly less than 0.09 not fulfilled

Answer whether the compound OC(CNC1CCCCC1)Cn1c2ccccc2c2ccccc21 (stereo not drawn) [MMV009063] has dGMP/AMP strictly less than 0.09 not fulfilled

Answer whether the compound Cc1cc(C=C2SC(=Nc3ccccc3)N(C3CCCC3)C2=O)c(C)n1-c1ccc(Cl)cc1 [MMV666688] has dGMP/AMP strictly less than 0.09 fulfilled

Answer whether the compound O=[N+]([O-])c1ccc(C=NNc2nc3ccccc3[nH]2)cc1 [MMV666607] has dGMP/AMP strictly less than 0.09 not fulfilled

Answer whether the compound CCCc1c(CC)c(=N)c2ccccc2n1C [MMV008416] has dGMP/AMP strictly less than 0.09 not fulfilled

Answer whether the compound CCN1CCN(Cc2ccc(NC(=O)c3cc4ccc5cccnc5c4[nH]3)cc2)CC1 [MMV020548] has dGMP/AMP strictly less than 0.09 not fulfilled

====

Test system: P. falciparum 3D7
test: [3H]-hypoxanthine growth inhibition, modified HCO3- or O2
Assay type: cell-based
applied-conditions: Plasmodium falciparum, 3D7, read-out: P. falciparum 3D7 IC50 5% O2
The label is met for IC50 below 300 nM and not met for IC50 equal to or exceeding 300 nM.

Answer whether the molecule CCC1(C)CC(CCNCc2ccccc2O)(c2ccc(C)cc2)CCO1 (centres unmarked) has IC50 strictly less than 300 nM not met

Answer whether the molecule Cc1cc(Nc2ccc(Cl)cc2)n2nc(C(F)(F)F)nc2n1 has IC50 strictly less than 300 nM not met

Answer whether the molecule CCN(CC)CCNc1ccnc2cc(Cl)ccc12 has IC50 strictly less than 300 nM met

Answer whether the molecule CCN(CC)CCCC(C)Nc1ccnc2cc(Cl)ccc12 (centres unmarked) [Chloroquine, reference compound] has IC50 strictly less than 300 nM met

Answer whether the molecule CCCc1c(CC)c(=N)c2ccccc2n1C has IC50 strictly less than 300 nM not met
